experiment: Acute toxicity i.v. in mice (LD50, MTD); format: in vivo; settings: mouse, in vivo, iv, on average
ASSAY_READOUT: LD50
Please provide the amount together with its unit, number first.

-- ask Find the recorded LD50 belonging to CC(CN(C)C)Nc1c2ccccc2nc2cccc([N+](=O)[O-])c12.Cl.Cl (stereo not shown) and report it.
-- reply 21 mg/kg

* * *

assay: Acute toxicity i.v. in rats (LD50, MTD); format: in vivo; settings: rat, in vivo, iv, on average
ASSAY_READOUT: LD50

-- ask Find the recorded LD50 belonging to CC(CN(C)C)Nc1c2ccccc2nc2cccc([N+](=O)[O-])c12.Cl.Cl (stereo not shown) and report it.
-- reply 13 mg/kg
